Attribution: PubChem BioAssay (Tox21)

Test: qHTS assay to identify small molecule antagonists of the thyroid receptor (TR) signaling pathway - cell viability counter screen (AID 743064); also: nearly all actives have a fitted effect of over 50% in size
Settings: GH3.TRE-Luc viability, CellTiter-Fluor, 24 h; series mostly up to 70.3 µM
Text: National Center for Advancing Translational Sciences [NCATS] NIH Chemical Genomics Center [NCGC] U.S. Environmental Protection Agency [EPA] National Institutes of Environmental Health Sciences [NIEHS] National Toxicology Program [NTP] U.S. Food and Drug Administration [FDA] Thyroid receptor (TR), a nuclear hormone receptor, plays an important role in development, proliferation, differentiation, metabolism, brain function, and cardiovascular system. […]
Records with an inconclusive call do not appear. The source made the active and inactive calls. Calls follow the shape of the dose curve; as a rule, active = well fitted cell-killing curve with a large enough effect in the repeat runs; inconclusive = weak or mixed curves, or effect the other way; inactive = no such curve, though single readings can be large or run the other way.
Hello, when you answer, please use one of the following outcomes: yes (1) for active, no (0) for inactive

As a guide, the following entries are already answered.
Q. Given `Cc1ncc(C[n+]2csc(CCOP(=O)(O)O)c2C)c(N)n1` , state the outcome it received in this test.
A. no (0)

Q. Write down the call the test reported for this compound. Item: `O=P(O)(O)C(O)(Cn1ccnc1)P(=O)(O)O`
A. no (0)

Q. What did this assay record as the result for `O=C1[O][Bi][O]c2ccccc21` ?
A. no (0)

Q. Call for entry `Cc1cc(-c2ccc(N=Nc3ccc4c(S(=O)(=O)O)cc(S(=O)(=O)O)c(N)c4c3O)c(C)c2)ccc1N=Nc1ccc2c(S(=O)(=O)O)cc(S(=O)(=O)O)c(N)c2c1O` :
A. no (0)

Q. Answer briefly: the call reported for c1ccc2c(c1)OCC(CN1CCCCC1)O2 (centres undefined) in this assay.
A. no (0)

Q. Dear all, I need the recorded test outcome for `OCCCNc1ccccc1` , thank you.
A. no (0)

Could you now consider this next compound?
Q. Given `CC(=O)Nc1ccc(OC(C)=O)cc1` , state the outcome it received in this test.
A. no (0)
